Origin of the recorded values: the kinase profiling compilation of Christmann-Franck et al. (2016)

Target: TTK (human) (UniProt P33981)
Sequence (P33981 whole entry, looked up): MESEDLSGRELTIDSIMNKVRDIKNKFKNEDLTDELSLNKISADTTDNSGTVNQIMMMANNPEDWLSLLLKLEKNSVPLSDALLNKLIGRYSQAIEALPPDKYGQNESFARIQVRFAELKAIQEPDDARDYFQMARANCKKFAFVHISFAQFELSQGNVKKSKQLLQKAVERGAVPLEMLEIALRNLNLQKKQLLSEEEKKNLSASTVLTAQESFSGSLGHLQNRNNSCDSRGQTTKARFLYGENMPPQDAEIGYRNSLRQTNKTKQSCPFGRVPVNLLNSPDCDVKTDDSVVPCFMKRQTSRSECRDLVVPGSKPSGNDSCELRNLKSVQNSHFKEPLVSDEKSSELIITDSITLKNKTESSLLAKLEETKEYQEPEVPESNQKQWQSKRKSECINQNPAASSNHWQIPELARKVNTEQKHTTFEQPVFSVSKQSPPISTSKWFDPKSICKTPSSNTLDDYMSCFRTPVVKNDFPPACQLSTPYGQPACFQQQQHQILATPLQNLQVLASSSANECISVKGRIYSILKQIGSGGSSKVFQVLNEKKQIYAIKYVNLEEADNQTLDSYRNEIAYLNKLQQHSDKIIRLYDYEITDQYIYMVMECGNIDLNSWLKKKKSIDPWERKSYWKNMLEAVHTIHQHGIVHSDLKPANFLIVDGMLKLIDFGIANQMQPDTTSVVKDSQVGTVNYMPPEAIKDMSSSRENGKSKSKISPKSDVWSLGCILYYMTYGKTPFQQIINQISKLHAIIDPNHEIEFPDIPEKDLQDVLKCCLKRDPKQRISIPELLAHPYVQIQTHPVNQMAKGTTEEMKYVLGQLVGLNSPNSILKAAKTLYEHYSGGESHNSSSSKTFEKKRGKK
Assay: radiometric filter-binding kinase assay, Kinase HotSpot
Conditions: compound 0.5 µM; ATP 10 µM
READOUT_TYPE: residual activity (%)
One number for each entry, in %.

>  <SMILES_DATA>
O=C(CCCc1ccc(-c2ccccc2F)cc1)Nc1ccc(O)cc1

>  <residual activity [%]>
89.5

$$$$
>  <SMILES_DATA>
O=C1NC(=O)C(c2cn(CCCO)c3ncccc23)=C1c1cnccn1

>  <residual activity [%]>
94.5

$$$$
>  <SMILES_DATA>
CN(C)C[C@H]1CCn2c(c(C3=C(c4cn(C)c5ccccc45)C(=O)NC3=O)c3ccccc32)C1

>  <residual activity [%]>
105

$$$$

Moving on to the next compound.
Per the records, this compound ( O=C(O)/C=C/c1cc(Br)c(Br)c(Br)c1Br ) has residual activity equal to 98.1
